Reference source: patent US9796711B2

# MEASURED TARGET: ΔF508-CFTR (Homo sapiens, UniProt P13569, DEL508-508)
# Construct: host or cells: CFBE41o-, doxycycline-inducible
# Sequence (P13569 with tags, fused parts or gaps DEL508-508): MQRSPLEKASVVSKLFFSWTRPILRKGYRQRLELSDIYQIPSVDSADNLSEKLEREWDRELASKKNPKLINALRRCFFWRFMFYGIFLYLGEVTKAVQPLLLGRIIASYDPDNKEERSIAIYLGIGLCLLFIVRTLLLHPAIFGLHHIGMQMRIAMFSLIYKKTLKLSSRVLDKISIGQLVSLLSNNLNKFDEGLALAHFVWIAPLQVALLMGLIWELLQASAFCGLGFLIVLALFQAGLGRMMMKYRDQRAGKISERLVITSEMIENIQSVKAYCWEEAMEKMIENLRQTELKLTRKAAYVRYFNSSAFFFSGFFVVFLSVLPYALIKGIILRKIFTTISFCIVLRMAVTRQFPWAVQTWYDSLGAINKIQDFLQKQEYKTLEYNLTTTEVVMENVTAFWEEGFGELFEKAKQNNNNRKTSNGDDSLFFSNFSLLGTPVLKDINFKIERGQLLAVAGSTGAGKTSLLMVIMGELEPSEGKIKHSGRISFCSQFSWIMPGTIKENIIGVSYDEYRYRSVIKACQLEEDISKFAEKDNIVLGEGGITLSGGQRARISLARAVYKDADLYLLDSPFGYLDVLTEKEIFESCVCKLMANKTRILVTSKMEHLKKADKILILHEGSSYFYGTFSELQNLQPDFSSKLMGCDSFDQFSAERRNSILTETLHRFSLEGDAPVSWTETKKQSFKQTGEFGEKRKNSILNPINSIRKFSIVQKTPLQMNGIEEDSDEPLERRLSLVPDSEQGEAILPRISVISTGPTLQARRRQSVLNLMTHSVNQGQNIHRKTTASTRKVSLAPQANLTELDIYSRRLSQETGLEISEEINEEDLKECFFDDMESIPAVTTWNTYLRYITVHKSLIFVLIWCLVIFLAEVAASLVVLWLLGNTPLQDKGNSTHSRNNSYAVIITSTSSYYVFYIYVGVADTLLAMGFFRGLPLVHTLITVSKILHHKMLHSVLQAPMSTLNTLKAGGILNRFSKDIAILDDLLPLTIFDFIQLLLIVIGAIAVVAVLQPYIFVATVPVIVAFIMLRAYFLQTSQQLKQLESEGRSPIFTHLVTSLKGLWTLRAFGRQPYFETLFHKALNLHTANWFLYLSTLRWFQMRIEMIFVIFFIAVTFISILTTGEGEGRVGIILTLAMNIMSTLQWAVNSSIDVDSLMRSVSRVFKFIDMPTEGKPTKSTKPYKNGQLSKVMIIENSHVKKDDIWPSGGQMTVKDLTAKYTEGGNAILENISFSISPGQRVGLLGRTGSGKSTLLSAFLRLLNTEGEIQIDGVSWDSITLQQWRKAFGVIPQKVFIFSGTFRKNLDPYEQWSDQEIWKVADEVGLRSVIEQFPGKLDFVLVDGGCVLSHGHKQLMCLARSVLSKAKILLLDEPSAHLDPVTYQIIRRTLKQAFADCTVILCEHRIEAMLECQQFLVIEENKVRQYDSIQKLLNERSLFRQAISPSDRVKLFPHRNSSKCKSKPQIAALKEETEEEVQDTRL
# EXPERIMENT: CFTR cell surface levels using HRP-tagged ΔF508-CFTR expressing CFBE cells, in the presence of a co-corrector
# Assay type: cell-based
# APPLIED CONDITIONS: HRP-tagged ΔF508-CFTR expressing CFBE cells, in the presence of 3 μM co-corrector; read-out: EC50
Reported values of EC50 for individual entries
Number in nM, nothing else.

CC(C)c1nn(-c2ccc(F)cc2)c2nc(C(=O)O)cc(N3CCN(CC4CCCO4)CC3)c12 (stereo not shown); 710

Provide only the value of recorded EC50 for O=C(O)c1cc(OCCC2CCCCC2)c2c(C3CCC3)nn(-c3ccccc3)c2n1
714

Provide only the value of recorded EC50 for CC(C)Oc1nn(C2CCCCC2)c2nc(C(=O)O)cc(-c3ccc(C#N)cc3)c12
380

Provide only the value of recorded EC50 for O=C(O)c1cc(N2CCC(N3CCC(F)C3)CC2)c2c(C3CCC3)nn(-c3ccc(F)cc3)c2n1 (stereo not shown)
968

Provide only the value of recorded EC50 for Cc1nn(-c2ccccc2)c2nc(C(=O)O)cc(N3CCC(F)CC3)c12
3340

Provide only the value of recorded EC50 for O=C(O)c1cc(N2CCC(COCc3ccccc3)CC2)c2c(C3CCC3)nn(-c3ccccc3)c2n1
577

Provide only the value of recorded EC50 for Cc1nn(-c2ccccc2)c2nc(C(=O)O)cc(OCC(F)C3CCOCC3)c12 (stereo not shown)
1500

Provide only the value of recorded EC50 for COCCCN1CCN(c2cc(C(=O)O)nc3c2c(C2CCC2)nn3-c2ccccc2)CC1
409

* * *

# MEASURED TARGET: ΔF508-CFTR (Homo sapiens, UniProt P13569, DEL508-508)
# Construct: host or cells: CFBE41o-, doxycycline-inducible
# EXPERIMENT: CFTR cell surface levels using HRP-tagged ΔF508-CFTR expressing CFBE cells, in the presence of a co-corrector
# Format: cell-based
# APPLIED CONDITIONS: HRP-tagged ΔF508-CFTR expressing CFBE cells, in the presence of 3 μM co-corrector
Reported values of % Activation for individual entries
Number in %, nothing else.

CCOC(=O)N1CCN(c2cc(C(=O)O)nc3c2c(C2CCC2)nn3-c2ccc(F)cc2)CC1 [compound 929]; 560
CCN(CC)CCCC1CCN(c2cc(C(=O)O)nc3c2c(C(C)C)nn3-c2ccc(F)cc2)CC1 [compound 747]; 475.3

Provide only the value of recorded % Activation for O=C(O)c1cc(N2CCC3(CC2)OCCO3)c2c(C3CCC3)nn(-c3ccccc3)c2n1 [compound 700]
290.9

Provide only the value of recorded % Activation for O=C(O)c1cc(OCCC2CCOCC2)c2c(C3CCC3)nn(-c3ccccc3)c2n1 [compound 414]
295.15

Provide only the value of recorded % Activation for CCOCC1(F)CCN(c2cc(C(=O)O)nc3c2c(C2CCC2)nn3-c2ccccc2)C1 (centres unmarked) [compound 510]
313.2

Provide only the value of recorded % Activation for CC(C)Oc1nn(C2CCCCC2)c2nc(C(=O)O)cc(-c3ccc(CN4CCN(C5CC5)CC4)cc3)c12 [compound 884]
377.6

Provide only the value of recorded % Activation for CC(C)c1nn(-c2cccc(F)c2)c2nc(C(=O)O)cc(-c3ccc(N(C)C4CCOCC4)cc3)c12 [compound 284]
435.23

Provide only the value of recorded % Activation for O=C(O)c1cc(N2CCC(O)(CCO)CC2)c2c(C3CCC3)nn(-c3ccccc3)c2n1 [compound 546]
246.6

Provide only the value of recorded % Activation for CCCCOC1CCN(c2cc(C(=O)O)nc3c2c(C(C)C)nn3-c2ccc(F)cc2)CC1 [compound 395]
480.35

Provide only the value of recorded % Activation for Cc1nn(-c2ccccc2)c2nc(C(=O)O)cc(OCC(F)C3CCOCC3)c12 (centres unmarked) [compound 377]
295.65

Provide only the value of recorded % Activation for Cc1c(C(=O)O)nc2c(c(C(C)C)nn2-c2ccc(F)cc2)c1N1CCC(N2CCOCC2)CC1 [compound 763]
276.3

Provide only the value of recorded % Activation for CC(C)c1nn(-c2ccc(F)cc2)c2nc(C(=O)O)cc(N3CCC4(CCN(C)CC4)CC3)c12 [compound 781]
368.7

Provide only the value of recorded % Activation for COCC1CCN(c2cc(C(=O)O)nc3c2c(C(C)C)nn3-c2ccnc(N3CCOCC3)n2)CC1 [compound 589]
451.75

Provide only the value of recorded % Activation for O=C(O)c1cc(N2CCC(CCN3CCCC3)CC2)c2c(C3CCC3)nn(-c3ccccc3)c2n1 [compound 574]
469.5

Provide only the value of recorded % Activation for Cc1cccc(-n2nc(C(C)C)c3c(N4CCC(CF)CC4)cc(C(=O)O)nc32)c1 [compound 348]
410.3

Provide only the value of recorded % Activation for O=C(O)c1cc(N2CC3(CCC3)C2)c2c(C3CCC3)nn(-c3ccccc3)c2n1 [compound 426]
253.5

Provide only the value of recorded % Activation for CC(=O)N1CCC(F)(COc2cc(C(=O)O)nc3c2c(C2CCC2)nn3-c2ccccc2)CC1 [compound 479]
317.77

Provide only the value of recorded % Activation for COCC(C)N1CCN(c2cc(C(=O)O)nc3c2c(C2CCC2)nn3-c2ccccc2)CC1 (centres unmarked) [compound 682]
368.9

Provide only the value of recorded % Activation for COC1CCN(c2cc(C(=O)O)nc3c2c(C2CCC2)nn3-c2ccccc2)CC1 [compound 358]
370.47

Provide only the value of recorded % Activation for N#CC1CCN(C2CCN(c3cc(C(=O)O)nc4c3c(C3CCC3)nn4-c3ccc(F)cc3)CC2)CC1 [compound 860]
576.25

Provide only the value of recorded % Activation for Cc1nn(-c2ccccc2)c2nc(C(=O)O)cc(N3CC4(CCOCC4)C3)c12 [compound 293]
264.9

Provide only the value of recorded % Activation for CC(C)c1nn(-c2ccc(F)cc2)c2nc(C(=O)O)cc(OCCCN(C)C)c12 [compound 606]
199.7

Provide only the value of recorded % Activation for O=C(O)c1cc(N2CCN(CCCO)CC2)c2c(C3CCC3)nn(-c3ccccc3)c2n1 [compound 471]
259.9
